Parameter: % of CD161 binding. Scope: all listed entries.
# target under test: T1, hKLRF2 (human, UniProt D3W0D1 1-207)
# T1 construct: Overexpressed on HEK293 cells
# T1 sequence: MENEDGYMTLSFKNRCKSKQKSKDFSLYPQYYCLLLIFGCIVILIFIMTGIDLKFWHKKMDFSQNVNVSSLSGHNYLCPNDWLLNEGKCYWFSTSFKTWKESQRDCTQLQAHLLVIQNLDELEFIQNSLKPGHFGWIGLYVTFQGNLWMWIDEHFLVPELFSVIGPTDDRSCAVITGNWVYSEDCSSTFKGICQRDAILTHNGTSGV
# test summary: flow cytometry, HEK293 transfectants, 100 nM antibody;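 note: antibody applied at a saturating level and incubated with cells for 30 min at room temperature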
quantity kind: % of CD161 binding (%)

{"binder": "Ab5 (antibody, human IgG1, V domains shown, IgG purified from yeast culture) VH: EVQLLESGGGLVQPGGSLRLSCAASGFTFGQYAMSWVRQAPGKGLEWVSAISAVGGTTAYADSVKGRFTISRDNSKNTLYLQMNSLRAEDTAVYYCAKPLDSSLWADFQLWGRGTLVTVSS VL: DIQLTQSPSSVSASVGDRVTITCRASQDISSWLAWYQQKPGKAPKLLIYFASSLQSGVPSRFSGSGSGTDFTLTISSLQPEDFATYYCQQASKLPITFGGGTKVEIK", "numeric readout": 0.035}
{"binder": "Ab2 (antibody, human IgG1, V domains shown, IgG purified from yeast culture) VH: EVQLLESGGGLVQPGGSLRLSCAASGFAFSTYAMSWVRQAPGKGLEWVSAISGVGGTTYYADSVKGRFTISRDNSKNTLYLQMNSLRAEDTAVYYCAKPLDSSLWADFDLWGRGTLVTVSS VL: DIQLTQSPSSVSASVGDRVTITCRASQGISSWLAWYQQKPGKAPKLLIYYASSLQDGVPSRFSGSGSGTDFTLTISSLQPEDFATYYCQQASVLPITFGGGTKVEIK", "numeric readout": 0.049}
{"binder": "Ab10 (antibody, human IgG1, V domains shown, IgG purified from yeast culture) VH: EVQLLESGGGLVQPGGSLRLSCAASGFTFSQYAMSWVRQAPGKGLEWVSAISAVGGSTYYADSVKGRFTISRDNSKNTLYLQMNSLRAEDTAVYYCAKPLDSSQWADFDLWGRGTLVTVSS VL: DIQLTQSPSSVSASVGDRVTITCRASQDISSWLAWYQQKPGKAPKLLIYAASALQSGVPSRFSGSGSGTDFTLTISSLQPEDFATYYCQQADVLPITFGGGTKVEIK", "numeric readout": 0.004}
{"binder": "Ab16 (antibody, human IgG1, V domains shown, IgG purified from yeast culture) VH: QVQLVESGGGLVKPGGSLRLSCAASGFTFSDYYMSWIRQAPGKGLEWVSYISPSGATIAYADSVKGRFTISRDNSKNTLYLQMNSLRAEDTAVYYCARSLMATGTHLYFDLWGRGTLVTVSS VL: DIQLTQSPSSVSASVGDRVTITCRASQGISSWLAWYQQKPGKAPKLLIYAASGLQSGVPSRFSGSGSGTDFTLTISSLQPEDFATYYCQQSTSFPPYTFGGGTKVEIK", "numeric readout": 0.048}
{"binder": "Ab13 (antibody, human IgG1, V domains shown, IgG purified from yeast culture) VH: QVQLVESGGGLVKPGGSLRLSCAASGFTFANYYMSWIRQAPGKGLEWVSYISPSGATIAYADSVKGRFTISRDNAKNSLYLQMNSLRAEDTAVYYCARSLMATGTHLYFDLWGRGTLVTVSS VL: DIQLTQSPSSVSASVGDRVTITCRASSGISSWLAWYQQKPGKAPKLLIYAASELQSGVPSRFSGSGSGTDFTLTISSLQPEDFATYYCQQATSFPPYTFGGGTKVEIK", "numeric readout": 0.089}
